- assayText: Antiproliferative activity against human Hep3B cells after 48 hrs by SRB assay
- Type: functional, Hep 3B2
- conditionSummary: Homo sapiens, Hep3B, 48 h
measuredEndpoint: GI50 (µM)
Enter your answer as a number in µM; do not include the unit.

[Q] Supply measured GI50 of CC(C)CCc1c(OCCCCCC(=O)NO)ccc2ccc(=O)oc12 in your reply.
[A] 0.8

---

- targetOfAssay: Histone deacetylase
- assayText: Inhibition of HDAC from human HeLa nuclear extract using Boc-Lys(Ac)-AMC as substrate incubated 30 mins before substrate addition measured after 30 mins post substrate addition by fluorescence assay
- Type: protein assay
Lab note: cut-off is 0.04 µM. Strictly less in IC50 is fulfilled. Exactly 0.04 µM or more is not fulfilled.

Solved cases (3 shown):
CC(C)CCc1c(OCCCCC(=O)NO)ccc(CCC(=O)NO)c1O not fulfilled
CC(C)CCc1c(OCCCCCCC(=O)NO)ccc2c1OC(=O)CC2 fulfilled
CC(C)CCc1c(OCCCCCC(=O)NO)ccc2c1OC(=O)CC2 not fulfilled

[Q] Below 0.04 µM on IC50? Entry CC(C)CCc1c(OCCCCCCC(=O)NO)ccc(CCC(=O)NO)c1O
[A] fulfilled

[Q] Below 0.04 µM on IC50? Entry CC(C)CCc1c(OCCCCC(=O)NO)ccc2ccc(=O)oc12
[A] not fulfilled

[Q] Below 0.04 µM on IC50? Entry CC(C)CCc1c(OCCCCCC(=O)NO)ccc(CCC(=O)NO)c1O
[A] not fulfilled

[Q] Below 0.04 µM on IC50? Entry CC(C)CCc1c(OCCCCCCC(=O)NO)ccc2ccc(=O)oc12
[A] fulfilled

[Q] Below 0.04 µM on IC50? Entry CC(C)CCc1c(OCCCCCC(=O)NO)ccc2ccc(=O)oc12
[A] not fulfilled

[Q] Below 0.04 µM on IC50? Entry CC(C)CCc1c(OCCCCCCCC(=O)NO)ccc2c1OC(=O)CC2
[A] not fulfilled

[Q] Below 0.04 µM on IC50? Entry CC(C)CCc1c(OCCCCCCCC(=O)NO)ccc(CCC(=O)NO)c1O
[A] fulfilled

[Q] Below 0.04 µM on IC50? Entry CC(C)CCc1c(OCCCCC(=O)NO)ccc2c1OC(=O)CC2
[A] not fulfilled

These data points were gathered from ChEMBL document CHEMBL1821635.
